# melting point values compiled below

Some solved cases for reference:
CC(=O)OC1CCC2(C)C3CCC4=C(CCC4(C)C#CCl)C3CCC2(C)C1 (stereo not drawn) | 109 to 110 °C
O=[N+]([O-])c1ccc(-n2ncc3cccnc32)c([N+](=O)[O-])c1 | 181 to 187 °C

# input molecule: `ON=C1CCCc2nonc21` ; wanted: its melting point
166 to 168 °C

---

PARAMETER: melting point (°C)

Cc1ccnc(NS(=O)(=O)c2ccc(N)cc2)n1 | 234
ICCCI | -20

[A] Cc1ccc2nc(C)[nH]c2c1
[B] CC(=O)c1ccc(C2CCCCC2)cc1
[C] CC(=O)Oc1ccccc1C(=O)O
[D] Nc1nc(N)sc(=S)n1
Arrange items by their melting point values in increasing order. // ordering of labels required in reply
B, C, A, D
